Sourced from ChEMBL document CHEMBL3991601

Target: Serine/threonine-protein kinase MRCK gamma (Homo sapiens, UniProt Q6DT37); note: in the data inactive means no Kd found up to 30 µM
Sequence (Q6DT37 whole entry): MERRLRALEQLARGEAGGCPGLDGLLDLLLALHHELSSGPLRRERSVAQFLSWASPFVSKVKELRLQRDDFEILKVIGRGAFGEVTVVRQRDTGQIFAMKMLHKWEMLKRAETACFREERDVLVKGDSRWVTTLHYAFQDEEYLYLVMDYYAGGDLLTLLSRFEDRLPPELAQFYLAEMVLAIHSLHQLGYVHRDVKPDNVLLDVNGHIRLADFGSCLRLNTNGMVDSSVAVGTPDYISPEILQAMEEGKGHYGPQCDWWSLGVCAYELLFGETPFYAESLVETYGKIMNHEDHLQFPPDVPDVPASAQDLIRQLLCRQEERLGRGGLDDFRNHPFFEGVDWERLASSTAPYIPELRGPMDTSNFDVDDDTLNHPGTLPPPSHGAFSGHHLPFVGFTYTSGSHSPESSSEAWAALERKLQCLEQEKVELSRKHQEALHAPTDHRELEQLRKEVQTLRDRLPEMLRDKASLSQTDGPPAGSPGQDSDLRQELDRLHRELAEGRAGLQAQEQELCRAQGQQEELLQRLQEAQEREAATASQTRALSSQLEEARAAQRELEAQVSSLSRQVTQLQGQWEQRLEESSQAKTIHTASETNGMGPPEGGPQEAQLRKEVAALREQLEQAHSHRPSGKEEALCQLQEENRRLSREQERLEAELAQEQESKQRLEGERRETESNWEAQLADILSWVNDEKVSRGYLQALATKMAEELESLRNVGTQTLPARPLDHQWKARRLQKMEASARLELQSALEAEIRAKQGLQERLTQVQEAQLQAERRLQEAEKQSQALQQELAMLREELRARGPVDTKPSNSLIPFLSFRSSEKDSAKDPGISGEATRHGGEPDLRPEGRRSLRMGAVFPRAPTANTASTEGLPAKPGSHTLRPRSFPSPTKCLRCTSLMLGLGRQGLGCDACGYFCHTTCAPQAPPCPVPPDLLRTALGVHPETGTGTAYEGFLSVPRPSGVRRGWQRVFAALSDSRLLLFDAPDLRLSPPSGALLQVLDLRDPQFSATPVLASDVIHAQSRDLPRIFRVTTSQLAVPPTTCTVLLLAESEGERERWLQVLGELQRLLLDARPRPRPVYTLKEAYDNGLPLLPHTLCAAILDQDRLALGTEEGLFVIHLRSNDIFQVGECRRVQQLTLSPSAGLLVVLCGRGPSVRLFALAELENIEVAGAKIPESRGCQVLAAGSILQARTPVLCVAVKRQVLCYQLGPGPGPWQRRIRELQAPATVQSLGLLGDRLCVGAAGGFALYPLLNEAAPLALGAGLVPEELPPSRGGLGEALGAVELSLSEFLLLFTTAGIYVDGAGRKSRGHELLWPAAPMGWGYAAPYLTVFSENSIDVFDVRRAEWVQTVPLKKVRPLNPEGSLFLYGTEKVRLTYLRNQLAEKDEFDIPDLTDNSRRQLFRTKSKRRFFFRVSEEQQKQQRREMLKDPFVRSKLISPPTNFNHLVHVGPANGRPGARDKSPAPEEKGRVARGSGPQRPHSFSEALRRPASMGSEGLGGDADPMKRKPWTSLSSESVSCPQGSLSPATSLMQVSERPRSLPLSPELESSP
Calls of active or inactive are those of the source.

molecule	Kd
CC(=O)NCC(=O)N1[C@@H]2CC[C@H]1c1ccc(Nc3ncc(C(F)(F)F)c(NC4CCC4)n3)cc12	> 30 µM (inactive)
C=CC(=O)N1CCC[C@H](n2c(=O)n(-c3ccc(Oc4ccccc4)cc3)c3c(N)ncnc32)C1	> 30 µM (inactive)
CNC(=O)c1nn(C)c2c1C(C)(C)Cc1cnc(Nc3ccc(N4CCN(C)CC4)cc3)nc1-2	> 30 µM (inactive)
COc1ccc(S(=O)(=O)N(C(C)=O)c2ccccc2/C=C/c2cc[n+]([O-])cc2)cc1	> 30 µM (inactive)
CNC(=O)c1cc(Oc2ccc(NC(=O)Nc3cc(C(C)(C)C)nn3-c3ccc4ncccc4c3)c(F)c2)ccn1	> 30 µM (inactive)
O=c1[nH]ccc2cc(OC3CCNCC3)ccc12 [SAR-407899 FREE BASE]	> 30 µM (inactive)
Cc1nc(Nc2n[nH]c3c2CN(C(=O)N[C@H](CN(C)C)c2ccccc2)C3(C)C)c2sccc2n1	> 30 µM (inactive)
COc1cc(Nc2ncc3c(n2)-c2ccc(Cl)cc2C(c2c(F)cccc2OC)=NC3)ccc1C(=O)O	> 30 µM (inactive)
COCC(=O)NC/C=C/c1ccc2ncnc(Nc3ccc(Oc4ccc(C)nc4)c(C)c3)c2c1	> 30 µM (inactive)
CO[C@H]1C[C@@H]2CC[C@@H](C)[C@@](O)(O2)C(=O)C(=O)N2CCCC[C@H]2C(=O)O[C@H]([C@H](C)C[C@@H]2CC[C@@H](OC(=O)C(C)(CO)CO)[C@H](OC)C2)CC(=O)[C@H](C)/C=C(\C)[C@@H](O)[C@@H](OC)C(=O)[C@H](C)C[C@H](C)/C=C/C=C/C=C/1C	> 30 µM (inactive)
C=CC(=O)Nc1cc2c(Nc3ccc(F)c(Cl)c3)ncnc2cc1C#CC(C)(C)N1CCN(C)CC1 [AV-412 FREE BASE]	> 30 µM (inactive)
O=C(Cc1ccc(-c2ccc(OCCN3CCOCC3)cc2)cn1)NCc1ccccc1	> 30 µM (inactive)
COc1cc2c(Nc3ccc(Cl)c(Cl)c3F)ncnc2cc1OC[C@@H]1C[C@@H]2CN(C)C[C@@H]2C1	> 30 µM (inactive)
C[C@@H](NC(=O)c1ncnc(N)c1Cl)c1ncc(C(=O)Nc2cc(C(F)(F)F)c(Cl)cn2)s1	> 30 µM (inactive)

###

Target: Mitogen-activated protein kinase kinase kinase kinase 3 (Homo sapiens); note: in the data inactive means no Kd found up to 30 µM
Sequence (Q8IVH8 whole entry): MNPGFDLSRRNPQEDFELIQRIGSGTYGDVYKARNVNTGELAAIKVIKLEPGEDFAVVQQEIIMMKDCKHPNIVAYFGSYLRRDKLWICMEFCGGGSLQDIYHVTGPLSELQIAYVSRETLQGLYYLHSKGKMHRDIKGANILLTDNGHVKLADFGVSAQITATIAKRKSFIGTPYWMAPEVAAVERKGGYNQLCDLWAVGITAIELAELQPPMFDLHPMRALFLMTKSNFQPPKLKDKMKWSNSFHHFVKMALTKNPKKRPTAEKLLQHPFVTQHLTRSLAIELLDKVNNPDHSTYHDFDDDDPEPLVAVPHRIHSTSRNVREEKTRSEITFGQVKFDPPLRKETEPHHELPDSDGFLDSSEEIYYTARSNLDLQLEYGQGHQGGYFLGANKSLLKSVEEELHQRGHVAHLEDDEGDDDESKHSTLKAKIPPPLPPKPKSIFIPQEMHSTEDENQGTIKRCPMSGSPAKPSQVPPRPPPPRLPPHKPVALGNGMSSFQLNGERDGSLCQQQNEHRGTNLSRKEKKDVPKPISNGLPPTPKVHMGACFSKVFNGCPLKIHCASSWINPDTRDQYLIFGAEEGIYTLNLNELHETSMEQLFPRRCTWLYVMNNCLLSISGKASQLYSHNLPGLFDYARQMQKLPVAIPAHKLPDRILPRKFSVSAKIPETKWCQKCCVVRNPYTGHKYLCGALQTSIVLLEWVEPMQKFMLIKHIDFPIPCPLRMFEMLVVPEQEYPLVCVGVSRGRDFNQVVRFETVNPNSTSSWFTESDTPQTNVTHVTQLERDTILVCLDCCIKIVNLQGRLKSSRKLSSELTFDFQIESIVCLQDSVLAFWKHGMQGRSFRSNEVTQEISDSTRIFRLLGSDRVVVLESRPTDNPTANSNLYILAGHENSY
Active and inactive are the calls of the source.
Outcome codes: active, inactive

> print(dat)
                                    molecule  assigned.label
 1  Cc1cc(C(=O)NOCCO)c(Nc2ccc(I)cc2F)n(C)c1=O        inactive
 2  O=C1NC(=O)[C@@H](c2cn3c4c(cccc24)CCC3)[C@@H]1c1c[nH]c2ccccc12 [TIVANTINIB]        inactive
 3  CNC(=O)c1cccc2cc(Oc3ccnc4cc(OCC5(N)CC5)c(OC)cc34)ccc12        inactive
 4  CN1CCN(CCOc2cc(OC3CCOCC3)c3c(Nc4c(Cl)ccc5c4OCO5)ncnc3c2)CC1        inactive
 5  COc1cc2ncnc(Oc3cccc(NC(=O)Nc4cc(C(C)(C)C(F)(F)F)on4)c3)c2cc1OC        inactive
 6  Cn1ncc(Cl)c1-c1cc(C(=O)N[C@H](CN)Cc2ccc(F)c(F)c2)oc1Cl        inactive
 7  COc1ncc(-c2ccc3nccc(-c4ccnnc4)c3c2)cc1NS(=O)(=O)c1ccc(F)cc1F        inactive
 8  C[C@@H](Oc1cc(C(=O)Nc2ccc(C(=O)N3CCN(C)CC3)cc2)nnc1N)c1c(Cl)ccc(F)c1Cl        inactive
 9  CCCCCCCCCCCCCCCCCCOP(=O)([O-])OC1CC[N+](C)(C)CC1        inactive
10  O=C(Nc1cc(C(F)(F)F)cc(C(F)(F)F)c1)c1cc(Cl)ccc1O        inactive
11  COc1cc(Nc2ncc3c(n2)-c2ccc(Cl)cc2C(c2c(F)cccc2OC)=NC3)ccc1C(=O)O        inactive
12  Cc1nc(NC(=O)N2CCC[C@H]2C(N)=O)sc1-c1ccnc(C(C)(C)C(F)(F)F)c1        inactive
13  C[C@@H](NC(=O)c1ncnc(N)c1Cl)c1ncc(C(=O)Nc2cc(C(F)(F)F)c(Cl)cn2)s1        inactive
14  CC(C)(C)c1nc(-c2cccc(NS(=O)(=O)c3c(F)cccc3F)c2F)c(-c2ccnc(N)n2)s1        inactive
15  CC(C)c1cc(CNc2nc(Nc3cc(C4CC4)[nH]n3)cc(N3CCN(C)CC3)n2)on1          active
16  CC(=O)NCC(=O)N1[C@@H]2CC[C@H]1c1ccc(Nc3ncc(C(F)(F)F)c(NC4CCC4)n3)cc12          active

###

Molecular target: Tyrosine-protein kinase Lyn (Homo sapiens, UniProt P07948); note: in the data inactive means no Kd found up to 30 µM
Sequence (P07948 whole entry): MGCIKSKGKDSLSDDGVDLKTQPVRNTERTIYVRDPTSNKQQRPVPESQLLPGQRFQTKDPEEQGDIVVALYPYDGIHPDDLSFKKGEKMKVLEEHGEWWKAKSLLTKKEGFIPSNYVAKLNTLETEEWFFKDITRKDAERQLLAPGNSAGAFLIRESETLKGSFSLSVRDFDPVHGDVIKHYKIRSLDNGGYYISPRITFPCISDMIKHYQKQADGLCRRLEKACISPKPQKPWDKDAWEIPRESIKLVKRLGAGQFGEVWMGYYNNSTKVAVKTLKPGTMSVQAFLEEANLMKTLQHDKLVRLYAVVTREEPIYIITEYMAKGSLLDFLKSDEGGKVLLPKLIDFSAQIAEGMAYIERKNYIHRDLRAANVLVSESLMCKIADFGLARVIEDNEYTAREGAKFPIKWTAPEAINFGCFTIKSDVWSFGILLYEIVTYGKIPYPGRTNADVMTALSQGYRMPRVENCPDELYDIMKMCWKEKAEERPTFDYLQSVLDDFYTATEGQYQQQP
Calls of active or inactive are those of the source.
Labels: active, inactive

molecule	target-or-system	assigned-label
CO[C@H]1C[C@@H]2CC[C@@H](C)[C@@](O)(O2)C(=O)C(=O)N2CCCC[C@H]2C(=O)O[C@H]([C@H](C)C[C@@H]2CC[C@@H](OP(C)(C)=O)[C@H](OC)C2)CC(=O)[C@H](C)/C=C(\C)[C@@H](O)[C@@H](OC)C(=O)[C@H](C)C[C@H](C)/C=C/C=C/C=C/1C [RIDAFOROLIMUS]	Tyrosine-protein kinase Lyn (Homo sapiens, UniProt P07948)	inactive
FC(F)(F)c1ccc(/C=C/c2nc(COc3ccc(CCCCn4ccnn4)cc3)co2)cc1 [MUBRITINIB]	Tyrosine-protein kinase Lyn (Homo sapiens, UniProt P07948)	inactive
CCn1cc(-c2ccnc3[nH]c(-c4cccc(CN(C)C)c4)cc23)c(-c2ccc(NC(=O)N(C)C)cc2)n1 [GSK-1070916]	Tyrosine-protein kinase Lyn (Homo sapiens, UniProt P07948)	inactive
COCc1c(-c2ccc(NC(=O)Nc3cc(C(F)(F)F)ccc3F)c(F)c2)c2c(N)ncnn2c1CN1CCOCC1	Tyrosine-protein kinase Lyn (Homo sapiens, UniProt P07948)	inactive
CCCCCCCCCCCCCCCCCCOP(=O)([O-])OC1CC[N+](C)(C)CC1 [PERIFOSINE]	Tyrosine-protein kinase Lyn (Homo sapiens, UniProt P07948)	inactive
Cc1cnc(NC(=O)Nc2cc(Br)c(C)cc2OC[C@@H]2CNCCO2)cn1 [RABUSERTIB]	Tyrosine-protein kinase Lyn (Homo sapiens, UniProt P07948)	inactive
CCn1c(C(=O)N(C2CC2)C2CC2)cc2c3c(ncn3C)c(Nc3cc(C)n(C)n3)nc21 [BMS-911543]	Tyrosine-protein kinase Lyn (Homo sapiens, UniProt P07948)	inactive
CC(=O)NCC(=O)N1[C@@H]2CC[C@H]1c1ccc(Nc3ncc(C(F)(F)F)c(NC4CCC4)n3)cc12 [PF-03814735]	Tyrosine-protein kinase Lyn (Homo sapiens, UniProt P07948)	inactive
COc1c(OCCCN2CCOCC2)ccc2c1N=C(NC(=O)c1cnc(N)nc1)N1CCN=C21 [COPANLISIB]	Tyrosine-protein kinase Lyn (Homo sapiens, UniProt P07948)	inactive
Cn1cc(-c2cnc3ccc4ccc(CS(=O)(=O)NCc5ccccn5)cc4c(=O)c3c2)cn1 [MK-8033]	Tyrosine-protein kinase Lyn (Homo sapiens, UniProt P07948)	inactive
Cn1ncc(Cl)c1-c1cc(C(=O)N[C@H](CN)Cc2ccc(F)c(F)c2)oc1Cl [UPROSERTIB]	Tyrosine-protein kinase Lyn (Homo sapiens, UniProt P07948)	inactive
Cc1csc(-c2nnc(Nc3ccc(Oc4ncccc4-c4ccnc(N)n4)cc3)c3ccccc23)c1 [AMG-900]	Tyrosine-protein kinase Lyn (Homo sapiens, UniProt P07948)	inactive
COCC(=O)NC/C=C/c1ccc2ncnc(Nc3ccc(Oc4ccc(C)nc4)c(C)c3)c2c1 [CP-724714]	Tyrosine-protein kinase Lyn (Homo sapiens, UniProt P07948)	inactive
CNC(=O)c1cccc2cc(Oc3ccnc4cc(OCC5(N)CC5)c(OC)cc34)ccc12 [LUCITANIB]	Tyrosine-protein kinase Lyn (Homo sapiens, UniProt P07948)	active
COc1cc2c(Nc3ccc(Cl)c(Cl)c3F)ncnc2cc1OC[C@@H]1C[C@@H]2CN(C)C[C@@H]2C1 [TESEVATINIB]	Tyrosine-protein kinase Lyn (Homo sapiens, UniProt P07948)	active
NC1(c2ccc(-c3nc4ccn5c(=O)[nH]nc5c4cc3-c3ccccc3)cc2)CCC1 [MK-2206]	Tyrosine-protein kinase Lyn (Homo sapiens, UniProt P07948)	inactive

###

Target: cAMP-dependent protein kinase catalytic subunit beta (Homo sapiens, UniProt P22694); note: in the data inactive means no Kd found up to 30 µM
Activity calls are given as the source filed them.
Each entry below carries its recorded Kd.
measurement-type: Kd

chemical-structure	measurement-type	test-result
CO[C@H]1C[C@@H]2CC[C@@H](C)[C@@](O)(O2)C(=O)C(=O)N2CCCC[C@H]2C(=O)O[C@H]([C@H](C)C[C@@H]2CC[C@@H](O)[C@H](OC)C2)CC(=O)[C@H](C)/C=C(\C)[C@@H](O)[C@@H](OC)C(=O)[C@H](C)C[C@H](C)/C=C/C=C/C=C/1C	Kd	> 30 µM (inactive)
Cc1nc(NC(=O)N2CCC[C@H]2C(N)=O)sc1-c1ccnc(C(C)(C)C(F)(F)F)c1	Kd	> 30 µM (inactive)
FC(F)(F)c1ccc(/C=C/c2nc(COc3ccc(CCCCn4ccnn4)cc3)co2)cc1	Kd	> 30 µM (inactive)
